Below, each of the compounds is paired with its reported viability at 72 h, 0.000762939 uM value.
assay: Cytotoxicity assay (CellTiter-Glo, 72 h), SKOV-3; assay type: cell-based, human; settings: human, SKOV-3 cells (ovarian adenocarcinoma), conc 0.000762939 uM; raw replicate data; read-out: SKOV3 viability (%)
Provide the reading as a plain figure in %.

compound: CO[C@@H]1C[C@H](C[C@@H](C)[C@@H]2CC(=O)[C@H](C)/C=C(\C)[C@@H](O)[C@@H](OC)C(=O)[C@H](C)C[C@H](C)/C=C/C=C/C=C(\C)[C@H](O)C[C@@H]3CC[C@@H](C)[C@@](O)(O3)C(=O)C(=O)N3CCCC[C@H]3C(=O)O2)CC[C@H]1O [Compound 17, (16R)-16-O-demethyl rapamycin]
quantity: viability at 72 h, 0.000762939 uM
measurement: 108

In the following, a different compound is considered.
Entry CO[C@H]1C[C@@H]2CC[C@@H](C)[C@@](O)(O2)C(=O)C(=O)N2CCCC[C@H]2C(=O)O[C@H]([C@H](C)C[C@@H]2CC[C@@H](O)[C@H](OC)C2)CC(=O)[C@H](C)/C=C(\C)[C@@H](O)CC[C@H](C)/C=C/C=C/C=C/1C [Compound 7] — recorded viability at 72 h, 0.000762939 uM = 98.7
